Taken from PubChem BioAssay (NCI).

Each entry below carries its recorded growth inhibition.
# assay.details: NCI Yeast Anticancer Drug Screen. Data for the mlh1 rad18 strain (AID 175)
# condition.details: S. cerevisiae mlh1 rad18 strain growth inhibition; at 50.0 µM; stronger effect = higher value
This is part of a sample that, as a whole, favours compounds with a hit. Of some 79,000 tested, about 15% had one in any assay.
quantity.measured: growth inhibition (%)

[[record]]
molecule = "CN(C)Cc1cc(C(C)(C)C)cc(CNC2CCCCC2)c1O"
quantity_measured = "growth inhibition"
observed_result = 19.9

[[record]]
molecule = "CCOCc1cnc(SC)nc1N"
quantity_measured = "growth inhibition"
observed_result = -14.4

[[record]]
molecule = "CCOC(=O)NC(=S)Nc1cn(C)cc1[N+](=O)[O-]"
quantity_measured = "growth inhibition"
observed_result = 11.7

[[record]]
molecule = "Cc1cc2oc(C)c(S(=O)(=O)NC(=O)Nc3ccc(Cl)cc3)c(=O)c2c(=O)o1"
quantity_measured = "growth inhibition"
observed_result = -2.8

[[record]]
molecule = "Cc1ccc(C)c(N2C(=O)C(=O)C(c3nc4ccccc4o3)/C(=N/N)C2=O)c1 (stereo unspecified)"
quantity_measured = "growth inhibition"
observed_result = -17.8

[[record]]
molecule = "CN1c2ccccc2N(C(=O)c2ccc([N+](=O)[O-])cc2)C(CC(=O)O)c2cccn21 (stereo unspecified)"
quantity_measured = "growth inhibition"
observed_result = 3


* * *

# assay.details: NCI Yeast Anticancer Drug Screen. Data for the rad50 strain (AID 155);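 note: 0% = growth of vehicle-only cultures of the same strain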
# condition.details: S. cerevisiae rad50 strain growth inhibition; at 50.0 µM; stronger effect = higher value
This is part of a sample that, as a whole, favours compounds with a hit. Of some 79,000 tested, about 15% had one in any assay. Active and inactive are the calls of the source. Cut-off read from the data, not from the text of the source: active = growth inhibition above about 70%; inactive = the rest.
# growth inhibition per entry
quantity.measured: growth inhibition

[[record]]
compound_smiles = "CC[n+]1ccc(/C=C\\c2c(Cl)cccc2Cl)cc1"
observed_result = "-1.45% (inactive)"

[[record]]
compound_smiles = "S=C(Nc1ccccc1)N1N=C2c3ccccc3CC[C@H]2[C@@H]1c1ccccc1"
observed_result = "-24.3% (inactive)"

[[record]]
compound_smiles = "C#CCOC(=O)[C@@H](C)c1ccc2cc(OC)ccc2c1"
observed_result = "11.2% (inactive)"


* * *

# assay.details: NCI Yeast Anticancer Drug Screen. Data for the mlh1 rad18 strain (AID 175)
# condition.details: S. cerevisiae mlh1 rad18 strain growth inhibition; at 50.0 µM; stronger effect = higher value
Compounds without any hit were thinned out: in the full panel of roughly 79,000, 15% have a hit.
quantity.measured: growth inhibition (%)

[[record]]
compound = "c1ccc(-c2nc3c(N4CCOCC4)ncnc3o2)cc1"
observed_result = 2.75

[[record]]
compound = "CSCCC(NC(=O)c1cnc2ccccc2n1)C(=O)O (stereo unspecified)"
observed_result = -17.1

[[record]]
compound = "CC1(C)C/C(=C\\c2cccc(Cl)c2)C(=O)c2ccccc21"
observed_result = 7.4

[[record]]
compound = "CC(C)OP(=O)(O)CCl"
observed_result = -26.3

[[record]]
compound = "CC1=Nc2ccccc2C1(C)C"
observed_result = 9.3

[[record]]
compound = "Cc1ccccc1NCc1ccccc1"
observed_result = 23.1


* * *

# assay.details: NCI Yeast Anticancer Drug Screen. Data for the mlh1 rad18 strain (AID 175)
# condition.details: S. cerevisiae mlh1 rad18 strain growth inhibition; at 50.0 µM; stronger effect = higher value
About 79,000 compounds went through this panel and 15% of them were active in at least one assay; those are over-represented in the sample as a whole.
Form field: growth inhibition (one value per entry).
quantity.measured: growth inhibition (%)

[[record]]
compound = "N#CC(C(=O)C(=O)Nc1cccc(Cl)c1)c1ccccc1 (configuration not stated)"
quantity_measured = "growth inhibition"
observed_result = -4.2

[[record]]
compound = "C/C(=N\\N=C(/C)c1ccc(C)cc1)c1ccc(C)cc1"
quantity_measured = "growth inhibition"
observed_result = 3.7

[[record]]
compound = "CCCC1OC(C2CC=CCC2C)OCC1CC (configuration not stated)"
quantity_measured = "growth inhibition"
observed_result = -46

[[record]]
compound = "CCOC(=O)CCC(NC(=O)c1ccc(Nc2nc3cc(C(F)(F)F)ccc3nc2C(=O)OCC)cc1)C(=O)OCC (configuration not stated)"
quantity_measured = "growth inhibition"
observed_result = 4.9

[[record]]
compound = "O=C1c2ccccc2C(=O)N1CCCSc1ccc(F)cc1"
quantity_measured = "growth inhibition"
observed_result = 36.2

[[record]]
compound = "Cc1cccc(-c2c3ccccc3cc3ccccc23)c1"
quantity_measured = "growth inhibition"
observed_result = 11.6

[[record]]
compound = "O=[N+]([O-])c1cc(Cl)ccc1Sc1ccccc1"
quantity_measured = "growth inhibition"
observed_result = 27.3

[[record]]
compound = "CCOC(=O)c1c(C)c(=O)cnc2c(C#N)cnn12"
quantity_measured = "growth inhibition"
observed_result = -8.35

[[record]]
compound = "CCN1CCCN(CC)C1=O"
quantity_measured = "growth inhibition"
observed_result = 0.1

[[record]]
compound = "Cn1c(N)c(NC(=S)NCC2CCCCC2)c(=O)n(C)c1=O"
quantity_measured = "growth inhibition"
observed_result = 1.5

[[record]]
compound = "OC1(c2ccc(C3(O)C(c4ccccc4)=C(c4ccccc4)C(c4ccccc4)=C3c3ccccc3)cc2)C(c2ccccc2)=C(c2ccccc2)C(c2ccccc2)=C1c1ccccc1"
quantity_measured = "growth inhibition"
observed_result = 9.85

[[record]]
compound = "CCN(CC)CCOB(c1cccc2ccccc12)c1cccc2ccccc12"
quantity_measured = "growth inhibition"
observed_result = 43.8

[[record]]
compound = "Cc1cc(Cc2ccc(N)c(C)c2)ccc1N"
quantity_measured = "growth inhibition"
observed_result = -2.45

[[record]]
compound = "O=C1C=C(N2CCCC2)c2ccccc21"
quantity_measured = "growth inhibition"
observed_result = 12.8

[[record]]
compound = "CC(C)CNC(=S)N/N=C/c1ccc(C(C)C)cc1"
quantity_measured = "growth inhibition"
observed_result = -28.1

[[record]]
compound = "O=C1CCN2CCC(=O)c3c(Cl)ccc1c32"
quantity_measured = "growth inhibition"
observed_result = 16.9

[[record]]
compound = "CCCCOC(=O)c1ccc(NC(=O)Nc2ccc([N+](=O)[O-])cc2OC)cc1"
quantity_measured = "growth inhibition"
observed_result = 6.05

[[record]]
compound = "C[CH2][Ge]([CH2]C)[CH2]C.C[CH2][Ge]([CH2]C)[CH2]C"
quantity_measured = "growth inhibition"
observed_result = -3

[[record]]
compound = "CCOC(=O)c1cc(=O)[nH]c(N)n1"
quantity_measured = "growth inhibition"
observed_result = -4.15

[[record]]
compound = "COC(=O)CCC(=O)c1cc(OC)c2cc3ccccc3cc2c1OC"
quantity_measured = "growth inhibition"
observed_result = -15.6

[[record]]
compound = "O=C1NC(O)c2cccc(F)c2O1 (configuration not stated)"
quantity_measured = "growth inhibition"
observed_result = 58.9

[[record]]
compound = "CCN(CC)CCN(CCN(CC)CC)c1c(OC)cccc1OC"
quantity_measured = "growth inhibition"
observed_result = 15.8

[[record]]
compound = "C/C(=C1/CCOC1=O)c1cccc(/C(C)=C2\\CCOC2=O)c1"
quantity_measured = "growth inhibition"
observed_result = 2.75

[[record]]
compound = "NNC(=O)Sc1ccccc1"
quantity_measured = "growth inhibition"
observed_result = -0.45

[[record]]
compound = "COc1ccc(CCCc2cc3c(cc2OC)OCO3)cc1"
quantity_measured = "growth inhibition"
observed_result = 12.2

[[record]]
compound = "C[C@@]1(N2C(=O)OC(c3ccccc3)C2=O)C(=O)N2CCS[C@@]21c1ccccc1 (some centres not stated)"
quantity_measured = "growth inhibition"
observed_result = 1.25

[[record]]
compound = "C=C1C(=O)OC(CCCCCCCCCCCCCC(C)=O)[C@H]1C(=O)O (some centres not stated)"
quantity_measured = "growth inhibition"
observed_result = 9.8

[[record]]
compound = "CCOC(=O)Cc1csc(NC(NC(=O)OCC)(C(=O)OCC)C(F)(F)F)n1 (configuration not stated)"
quantity_measured = "growth inhibition"
observed_result = -6.25

[[record]]
compound = "C=C(CO)[C@H]1Oc2ccc(C(C)=O)cc2[C@@H]1O"
quantity_measured = "growth inhibition"
observed_result = -12.5

[[record]]
compound = "S=c1c2ccccc2sn1-c1ccccc1"
quantity_measured = "growth inhibition"
observed_result = 51.5

[[record]]
compound = "O=S(=O)(Cc1ccccc1)c1ncc(Cl)cn1"
quantity_measured = "growth inhibition"
observed_result = 16.4

[[record]]
compound = "CC(=O)CC(=O)Nc1ccc(Cc2ccc(NC(C)=O)cc2)cc1"
quantity_measured = "growth inhibition"
observed_result = 21.8


* * *

# assay.details: NCI Yeast Anticancer Drug Screen. Data for the bub3 strain (AID 167)
# condition.details: S. cerevisiae bub3 mutant strain, at 50.0 µM, stronger effect = higher value
Compounds without any hit were thinned out: in the full panel of roughly 79,000, 15% have a hit.
quantity.measured: growth inhibition (%)

[[record]]
compound = "CCOC(=O)N1CCN(Cc2cc(=O)n3ccc(C)cc3n2)CC1"
observed_result = 17.4

[[record]]
compound = "O=C1ON=C(c2ccccc2)/C1=C\\C=C\\c1ccccc1"
observed_result = 35.6

[[record]]
compound = "O=C1CSC2=NC3=C(COC/C3=C\\c3ccc(F)cc3)C(c3ccc(F)cc3)N12 (centres undefined)"
observed_result = 30.1

[[record]]
compound = "O=S1(=O)CC(N2CCCCC2)C1"
observed_result = -3

[[record]]
compound = "COc1ccc(Cl)cc1NC(=O)Oc1ccccc1C(N)=O"
observed_result = 40.6

[[record]]
compound = "CCCCNc1ccc(Cl)cc1"
observed_result = -15.5

[[record]]
compound = "O=C1OC2(c3ccc(O)cc3Oc3cc(O)ccc32)c2ccccc21"
observed_result = -0.05

[[record]]
compound = "Cc1nn(C(=O)c2ccc(Cl)cc2)c2c1C(c1ccco1)SC(N)=N2 (centres undefined)"
observed_result = -18.1

[[record]]
compound = "CCOC(=O)C1=C(Nc2ccc(Cl)cc2Cl)OC/C1=N\\NS(=O)(=O)c1ccc(C)cc1"
observed_result = -2.45

